Origin of values: paper PMC11889887

target: T1, biotinylated recombinant human αvβ6 integrin (human, UniProt P06756 31-1048; P18564 22-709, biotinylated (which chain is not stated) | biotinylated (which chain is not stated)); experiment: ELISA; competitive integrin binding assay (taken as Assay 3): plates coated with human latent TGFβ1; various amounts of peptide 5a or 5a-HSA with 10 ng/ml biotinylated αvβ6 or αvβ8 in 20 mM Tris-HCl pH 7.4, 150 mM sodium chloride, 1 mM manganese chloride, 0.05% Tween-20, 0.5% BSA, 1 h; HRP-labeled streptavidin; details: both partners purified
T1 construct: integrin alpha-V, human, recombinant; integrin beta-6, human, recombinant; Detected by HRP-labeled streptavidin through the biotin; also called biotinylated-αvβ6; source: bought: Acros CROBiosystems (cat. IT6-H82E4)
Bridge positions count the residues as written; N and C are the ends. Square brackets hold non-standard residues; d marks the D form. Ends that are not written are not given here. Lys(N3) = [N-]=[N+]=NCCCC[C@H](N)C(=O)O; Pra = C#CC[C@H](N)C(=O)O
Endpoint: Ki (nM)
Express your answer in nM, writing the number without its unit.

What does the record list as Ki for CFETLRGDLRILSILR[Pra]QNL[Lys(N3)]KELQD-NH2 (triazole 17-21) [peptide 5a] ?
1.7
